Reference for the values: patent US12054500B2

Molecular target: recombinant human ARG1 (Homo sapiens)
Sequence (P05089 1-322): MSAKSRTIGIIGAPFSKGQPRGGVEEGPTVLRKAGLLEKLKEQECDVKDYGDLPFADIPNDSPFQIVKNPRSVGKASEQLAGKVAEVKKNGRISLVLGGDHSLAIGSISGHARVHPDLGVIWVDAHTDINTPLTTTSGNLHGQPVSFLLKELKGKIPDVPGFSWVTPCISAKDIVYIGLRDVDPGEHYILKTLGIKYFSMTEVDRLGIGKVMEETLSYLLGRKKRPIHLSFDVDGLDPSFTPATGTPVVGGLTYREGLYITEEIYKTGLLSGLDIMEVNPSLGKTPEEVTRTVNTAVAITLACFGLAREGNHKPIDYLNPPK
Assay: Arginase coupled enzymatic assay using recombinant human ARG1
Settings: 2 nM ARG1, 0.8 mM L-Arginine, 10 mM sodium phosphate pH 7.4, 37° C.; read-out: Potency: Arginase 1 inhibition IC50
pIC50: −log10 of the molar value.
Each entry below carries its reported pIC50.

// solved cases for pIC50 follow
Compound	Assayed Target	pIC50
N[C@@]1(C(=O)O)C[C@H]2CN(C(CO)CCl)C[C@H]2[C@@H]1CCCB(O)O (stereo partly shown)	recombinant human ARG1 (Homo sapiens)	> 7.00
N[C@@]1(C(=O)O)C[C@H]2CNC[C@H]2[C@@H]1CCCB(O)O	recombinant human ARG1 (Homo sapiens)	> 7.00
C[C@H](N)C(=O)N1C[C@@H]2C[C@@](N)(C(=O)O)[C@@H](CCCB(O)O)[C@@H]2C1	recombinant human ARG1 (Homo sapiens)	6.00 to 7.00

Using the record for CC1(C)[C@H]2C[C@@H]3OB(CCC[C@H]4[C@@H]5CNC[C@@H]5C[C@@]4(N)C(=O)O)O[C@]3(C)[C@@H]1C2 , report its pIC50.
6.00 to 7.00
